Assay: Tmax in Sprague-Dawley rat at 0.1 mg/kg, iv by LC-MS/MS analysis
Format: ADME, organism-based
Details: in vivo
Quantity name: Tmax (min)

In [3]: df
Out[3]:
                           substance_smiles  result
0  O=S1(=O)NCc2cccc(-c3ccc(-c4ccccc4F)cc3)c2O1     4.8

----------
Assay: Drug concentration in Sprague-Dawley rat brain at 1 mg/kg, po measured after 6 hrs by LC-MS/MS analysis
Format: ADME, organism-based
Conditions: read-out: Ct
Quantity name: concentration at 6 h (ng/g)

>>> df
                           substance_smiles  result
0  O=S1(=O)NCc2cccc(-c3ccc(-c4ccccc4F)cc3)c2O1      93

----------
Assay: Drug concentration in Sprague-Dawley rat brain at 1 mg/kg, po measured after 24 hrs by LC-MS/MS analysis
Assay type: ADME, organism-based
Conditions: read-out: Ct
Quantity name: concentration at 24 h (ng/g)

>>> df
                           substance_smiles  result
0  O=S1(=O)NCc2cccc(-c3ccc(-c4ccccc4F)cc3)c2O1    6.05

----------
Assay: AUC (0 to infinity) in Sprague-Dawley rat at 0.1 mg/kg, iv by LC-MS/MS analysis
Format: ADME, organism-based
Parameters: dose 0.1 mg/kg, route iv
Details: in vivo
Quantity name: AUC(0-inf) (ng·h/mL)

>>> print(df.to_string())
                           substance_smiles      uom  result
0  O=S1(=O)NCc2cccc(-c3ccc(-c4ccccc4F)cc3)c2O1  ng·h/mL     129

----------
Overview of recorded Activity for various compounds
Biological target: Glutamate receptor ionotropic, AMPA (Rattus norvegicus) (UniProt P19491+P19492+P19493+P19490)
Assay: Agonist activity at AMPA receptor in rat Primary neuron cells assessed as potentiation of s-AMPA induced calcium flux at 1 uM incubated for 1 hr by calcium 2+ influx assay relative to s-AMPA coupled TAK-137
Assay type: cell-based
Settings: filed as agonist
Quantity name: Activity (%)

In [3]: df
Out[3]:
                                    compound  result
 0    O=S1(=O)NCc2cccc(-c3ccc4c(c3)OCO4)c2O1      92
 1  O=S1(=O)NCc2cccc(-c3ccc(OC(F)(F)F)cc3)c2O1    72.2
 2  O=S1(=O)NCc2cccc(-c3ccc(-c4ccc(F)cc4)cc3)c2O1    85.3
 3  O=S1(=O)NCc2cccc(-c3ccc(-c4cccc(F)c4)cc3)c2O1    72.1
 4  O=S1(=O)NCc2cccc(-c3ccc(-c4ccccc4F)cc3)c2O1    80.2
 5  O=S1(=O)NCc2cccc(-c3ccc(Oc4ccccc4)cc3)c2O1    77.3
 6  COc1cccc(-c2ccc(-c3cccc4c3OS(=O)(=O)NC4)cc2)c1    56.4
 7  Cc1ccc(-c2ccc(-c3cccc4c3OS(=O)(=O)NC4C)cc2)cc1 (stereo unspecified)    55.3
 8   O=S1(=O)NCc2cccc(-c3ccc4c(c3)OCCO4)c2O1    90.7
 9  COc1ccc(-c2ccc(-c3cccc4c3OS(=O)(=O)NC4)cc2F)cc1    55.8
10  COc1cccc(-c2ccc(-c3cccc4c3OS(=O)(=O)NC4C)cc2)c1 (stereo unspecified)    58.5
